Experiment: Lipophilicity by experimental HPLC retention time
Assay type: physicochemical
Settings: HPLC retention time as measure of lipophilicity; C18, 10 to 90% CH3CN/H2O with 0.1% FA over 25 min
Description: The ability to kill neighboring cells (i.e. bystander effect) is an important property for ADC payloads. […] Compounds were analyzed using an Agilent 1260 HPLC (Agilent Technologies, Inc., Santa Clara, CA) equipped with a Diode array detector and using a Phenomenex Kinetex EVO C18 150×4.6, 2.6 μm column (Phenomenex, Torrance, CA), eluting with 10 to 90% CH3CN/H2O with 0.1% FA over 25 min.
MEASUREMENT NAME: HPLC (min)
Answers are plain numbers, in min.

Ask: // lookup HPLC for CC[C@H](C)[C@H]1C(=O)NC[C@@H](NC(=O)c2nc3ccccc3cc2O)C(=O)N2CCCC[C@H]2C(=O)NCC(=O)N(C)CC(=O)N(C)[C@@H]([C@@H](C)CC)C(=O)NC[C@@H](NC(=O)c2nc3ccccc3cc2O)C(=O)N2CCCC[C@H]2C(=O)NCC(=O)N(C)CC(=O)N1C [Compound 67]
Result: 18.8

Ask: Queued: CC(C)[C@H]1C(=O)NC[C@@H](NC(=O)c2nc3ccccc3cc2O)C(=O)N2CCCC[C@H]2C(=O)NCC(=O)N(C)CC(=O)N(C)C(C)(C)C(=O)NC[C@@H](NC(=O)c2nc3ccccc3cc2O)C(=O)N2CCCC[C@H]2C(=O)NCC(=O)N(C)CC(=O)N1C [Compound 115]
Result: 15.8

Ask: Lookup CC(C)[C@H]1C(=O)NCC(=O)N(C)CC(=O)N2CCCC[C@H]2C(=O)NC[C@@H](NC(=O)c2nc3ccccc3cc2O)C(=O)N(C)[C@@H](C(C)C)C(=O)NCC(=O)N(C)CC(=O)N2CCCC[C@H]2C(=O)NC[C@@H](NC(=O)c2nc3ccccc3cc2O)C(=O)N1C [Compound 414]
Result: 16.8

Ask: Note, next up: CC(C)[C@H]1C(=O)NC[C@@H](NC(=O)c2nc3ccccc3cc2O)C(=O)N2CCCC[C@H]2C(=O)NCC(=O)N(C)CC(=O)N(C)[C@@H]([C@@H](C)O)C(=O)NC[C@@H](NC(=O)c2nc3ccccc3cc2O)C(=O)N2CCCC[C@H]2C(=O)NCC(=O)N(C)CC(=O)N1C [Compound 55]
Result: 10.6

Ask: Also check CC[C@H](C)[C@H]1C(=O)NC[C@@H](NC(=O)c2nc3ccccc3cc2O)C(=O)N2CCCC[C@H]2C(=O)NCC(=O)N(C)CC(=O)N(C)[C@@H](C(C)C)C(=O)NC[C@@H](NC(=O)c2nc3ccccc3cc2O)C(=O)N2CCCC[C@H]2C(=O)NCC(=O)N(C)CC(=O)N1C [Compound 72]
Result: 18.0

Provide reported HPLC for each item, in the same order as listed.
1. CC(C)[C@H]1C(=O)NC[C@@H](NC(=O)c2nc3ccccc3cc2O)C(=O)N2CCCC[C@H]2C(=O)NCC(=O)N(C)CC(=O)N(C)[C@@H](C(C)C)C(=O)NC[C@@H](NC(=O)c2nc3ccccc3cc2O)C(=O)N2CCCC[C@H]2C(=O)NCC(=O)N(C)CC(=O)N1C [Compound 35]
2. O=C(N[C@@H]1CNC(=O)[C@@H]2CCCCN2C(=O)COCCNC(=O)[C@@H]2CCCCN2C(=O)[C@H](NC(=O)c2nc3ccccc3cc2O)CNC(=O)[C@@H]2CCCCN2C(=O)COCCNC(=O)[C@@H]2CCCCN2C1=O)c1nc2ccccc2cc1O [Compound 409]

Result:
1: 17.1; 2: 16.1

----------
Test: Lipophilicity by experimental HPLC retention time
Assay type: physicochemical
Conditions: HPLC retention time as measure of lipophilicity; C18, 10 to 90% CH3CN/H2O with 0.1% FA over 25 min
Method: The ability to kill neighboring cells (i.e. bystander effect) is an important property for ADC payloads. […] Compounds were analyzed using an Agilent 1260 HPLC (Agilent Technologies, Inc., Santa Clara, CA) equipped with a Diode array detector and using a Phenomenex Kinetex EVO C18 150×4.6, 2.6 μm column (Phenomenex, Torrance, CA), eluting with 10 to 90% CH3CN/H2O with 0.1% FA over 25 min.
Record form. Attribute: HPLC. Fill in for each entry.
Don't forget the unit after the value.

Ask: GET /values?readout=HPLC&item= CC(C)[C@H]1C(=O)NC[C@@H](NC(=O)c2nc3ccccc3cc2O)C(=O)N2CCCC[C@H]2C(=O)NCCOCC(=O)N(C)[C@@H](C(C)C)C(=O)NC[C@@H](NC(=O)c2nc3ccccc3cc2O)C(=O)N2CCCC[C@H]2C(=O)NCCOCC(=O)N1C [Compound 404]
Result: 16.0 min

Now for the compound whose HPLC we want.
Ask: Item under review: CC(C)[C@H]1C(=O)N(C)C[C@@H](NC(=O)c2nc3ccccc3cc2O)C(=O)N2CCCC[C@H]2C(=O)NCC(=O)N(C)CC(=O)N(C)[C@@H](C(C)C)C(=O)N(C)C[C@@H](NC(=O)c2nc3ccccc3cc2O)C(=O)N2CCCC[C@H]2C(=O)NCC(=O)N(C)CC(=O)N1C [Compound 42] . Reported HPLC?
Result: 17.7 min

----------
Test: Lipophilicity by experimental HPLC retention time
Assay type: physicochemical
Settings: HPLC retention time as measure of lipophilicity; C18, 10 to 90% CH3CN/H2O with 0.1% FA over 25 min
Where a SMILES comes first, the peptide text is derived from it. Bridges are numbered along the chain shown (N, C = ends). Roman numbers before positions name the chains, in order. [ ]: non-standard residue; d: D form. The star is where a group is joined. Quinaldoyl(3-OH) = O=C(c1nc2ccccc2cc1O)*; NMeV = CN[C@H](C(=O)O)C(C)C; Pip = O=C(O)[C@@H]1CCCCN1; dDap = NC[C@@H](N)C(=O)O
MEASUREMENT NAME: HPLC

Ask: For CC(C)[C@H]1C(=O)NC[C@@H](NC(=O)c2nc3ccccc3cc2O)C(=O)N2CCCC[C@H]2C(=O)NCC(=O)N(C)CC(=O)N2CCCCC[C@H]2C(=O)NC[C@@H](NC(=O)c2nc3ccccc3cc2O)C(=O)N2CCCC[C@H]2C(=O)NCC(=O)N(C)CC(=O)N1C , what is its reported HPLC?
Result: 16.4 min

Ask: Moving on to the next compound: CC[C@H](C)[C@H]1C(=O)NC[C@@H](NC(=O)c2nc3ccc(Br)cc3cc2O)C(=O)N2CCCC[C@H]2C(=O)NCC(=O)N(C)CC(=O)N(C)[C@@H]([C@@H](C)CC)C(=O)NC[C@@H](NC(=O)c2nc3ccc(Br)cc3cc2O)C(=O)N2CCCC[C@H]2C(=O)NCC(=O)N(C)CC(=O)N1C
Result: 21.0 min

Now consider the entry below.
Ask: Name the recorded HPLC for CC(C)[C@H]1C(=O)NC[C@@H](NC(=O)c2nc3ccccc3cc2O)C(=O)N2CCCC[C@H]2C(=O)NCC(=O)NCC(=O)N(C)[C@@H](C(C)C)C(=O)NC[C@@H](NC(=O)c2nc3ccccc3cc2O)C(=O)N2CCCC[C@H]2C(=O)NCC(=O)NCC(=O)N1C [Compound 137] (I: {Quinaldoyl(3-OH)}-[dDap][Pip]GG[NMeV] / II: {Quinaldoyl(3-OH)}-[dDap][Pip]GG[NMeV]; amide I:1-II:C, I:C-II:1) .
Result: 15.1 min

----------
Experiment: Lipophilicity by experimental HPLC retention time
Type: physicochemical
Conditions: HPLC retention time as measure of lipophilicity; C18, 10 to 90% CH3CN/H2O with 0.1% FA over 25 min
For each entry below, report its HPLC value.
One number for each entry, in min.

Ask: HPLC for CC(C)[C@H]1C(=O)NC[C@@H](NC(=O)c2nc3ccccc3cc2O)C(=O)N2CCCC[C@H]2C(=O)NCC(=O)N(C)CC(=O)N(C)C2(CCC2)C(=O)NC[C@@H](NC(=O)c2nc3ccccc3cc2O)C(=O)N2CCCC[C@H]2C(=O)NCC(=O)N(C)CC(=O)N1C [Compound 121] ?
Result: 17.0

Ask: Same for CC(C)[C@H]1COC[C@@H](NC(=O)c2nc3ccccc3cc2O)C(=O)N2CCCC[C@H]2C(=O)NCC(=O)N(C)CC(=O)N(C)[C@@H](C(C)C)COC[C@@H](NC(=O)c2nc3ccccc3cc2O)C(=O)N2CCCC[C@H]2C(=O)NCC(=O)N(C)CC(=O)N1C [Compound 172]
Result: 18.2

Ask: What do you get for CC[C@H](C)[C@H]1COC[C@@H](NC(=O)c2nc3ccccc3cc2O)C(=O)N2CCCC[C@H]2C(=O)NCC(=O)N(C)CC(=O)N(C)[C@@H](C(C)C)C(=O)NC[C@@H](NC(=O)c2nc3ccccc3cc2O)C(=O)N2CCCC[C@H]2C(=O)NCC(=O)N(C)CC(=O)N1C [Compound 197] ?
Result: 19.4

For each listed entry, give its HPLC.
1. CN1CC(=O)N(C)[C@@H](C2CCCCC2)C(=O)NC[C@@H](NC(=O)c2nc3ccccc3cc2O)C(=O)N2CCCC[C@H]2C(=O)NCC(=O)N(C)CC(=O)N(C)[C@@H](C2CCCCC2)C(=O)NC[C@@H](NC(=O)c2nc3ccccc3cc2O)C(=O)N2CCCC[C@H]2C(=O)NCC1=O [Compound 162]
2. CC(C)[C@H]1COC[C@@H](NC(=O)c2nc3ccccc3cc2O)C(=O)N2CCCC[C@H]2C(=O)NCC(=O)N(C)CC(=O)N(C)[C@@H](C(C)C)C(=O)NC[C@@H](NC(=O)c2nc3ccccc3cc2O)C(=O)N2CCCC[C@H]2C(=O)NCC(=O)N(C)CC(=O)N1C [Compound 178]
3. CN1CC(=O)N2CCCC[C@H]2C(=O)NC[C@@H](NC(=O)c2nc3ccccc3cc2O)C(=O)N2CCCC[C@H]2C(=O)NCC(=O)N(C)CC(=O)N2CCCC[C@H]2C(=O)NC[C@@H](NC(=O)c2nc3ccccc3cc2O)C(=O)N2CCCC[C@H]2C(=O)NCC1=O [Compound 49]
4. C[C@H]1NC(=O)[C@@H]2CCCCN2C(=O)CN(C)C(=O)CNC(=O)[C@@H]2CCCCN2C(=O)[C@H](NC(=O)c2nc3ccccc3cc2O)[C@@H](C)NC(=O)[C@@H]2CCCCN2C(=O)CN(C)C(=O)CNC(=O)[C@@H]2CCCCN2C(=O)[C@@H]1NC(=O)c1nc2ccccc2cc1O [Quinaldopeptin, quinaldopeptin, reference compound]

Result:
1. 20.7
2. 18.4
3. 15.7
4. 16.7
